protocol summary: Multiple-ascending dose trial of Compound 1 in healthy participants: safety and PK
Type: in vivo, human
details: human, plasma, 10 mg, 10 mg QD, Day 1; mean (CV %)
Method: A multiple-ascending dose clinical trial of Compound 1 was performed.
observed property: Cmax (ng/mL)
Give the quantity in ng/mL, number only.

Q) I would be grateful if you could share the reported Cmax for COC1CCN(c2ncc(OC/C(=C/F)CN)cn2)CC1 .
A) 17.7

====

protocol summary: pH and solubilizer effect on solubility
Format: physicochemical
details: pH 2.0 buffer with 2 wt % SLS, 25 °C, pH 2, aqueous with cosolvent or surfactant or cyclodextrin, thermodynamic from solid, pH 2.0 buffer, with 2 wt % SLS, potassium salt
Experimental: Solubility of compound 2 (potassium salt) was evaluated at various pH levels.
observed property: solubility at 24 h (µg/mL)
Give the quantity in µg/mL, number only.

Q) I would be grateful if you could share the reported solubility at 24 h for N#Cc1nn(-c2cc(Cl)c(Oc3n[nH]c(=O)c4ccccc34)c(Cl)c2)c(=O)[nH]c1=O [Compound 2] .
A) 5.5

====

protocol summary: Multiple-ascending dose trial of Compound 1 in healthy participants: safety and PK
Type: in vivo, human
details: human, plasma; 4 mg QD, Last day (of 7); median (min, max)
Method: A multiple-ascending dose clinical trial of Compound 1 was performed.
observed property: half-life (h)
Give the quantity in h, number only.

Q) I would be grateful if you could share the reported half-life for COC1CCN(c2ncc(OC/C(=C/F)CN)cn2)CC1 .
A) 6.71

====

Field: half-life. Provide a value for each of the molecules that follow.
protocol summary: Pharmacokinetic evaluation in SD rats
Type: in vivo, rat
details: male, rat, plasma, po, 2.0 mg/kg intragastric
Give the quantity in h, number only.

Q) I would be grateful if you could share the reported half-life for CC1(C)CCc2c(Oc3c(Cl)cc(-n4cc(C#N)c(=O)[nH]c4=O)cc3Cl)n[nH]c(=O)c21 .
A) 5.14

Q) I would be grateful if you could share the reported half-life for N#Cc1nn(-c2cc(Cl)c(Oc3n[nH]c(=O)c4ccccc34)c(Cl)c2)c(=O)[nH]c1=O .
A) 4.56

Q) I would be grateful if you could share the reported half-life for CC(C)c1cc(Oc2c(Cl)cc(-n3nc(C#N)c(=O)[nH]c3=O)cc2Cl)n[nH]c1=O [Reference compound, reference compound] .
A) 3.53

====

protocol summary: Single-ascending dose trial of Compound 2 in healthy participants: safety and PK
Format: in vivo, human
details: human, plasma, oral; single dose 10 mg, fasted (n = 6); mean
observed property: AUC(0-inf)
Returns: string containing the numeric result and its unit.

Q) I would be grateful if you could share the reported AUC(0-inf) for N#Cc1nn(-c2cc(Cl)c(Oc3n[nH]c(=O)c4ccccc34)c(Cl)c2)c(=O)[nH]c1=O [Compound 2] .
A) 8.11 µg·h/mL

====

protocol summary: Single-ascending dose trial of Compound 2 in healthy participants: safety and PK
Assay type: in vivo, human
details: human, plasma, oral, 10 mg, single dose 10 mg, fasted (n = 6); median (min-max); read-out: t1/2 (converted)
Procedure: A single-ascending dose clinical trial of Compound 2 (potassium salt) was performed. Compound 2 plasma and urine concentrations were determined using validated liquid chromatography-tandem mass spectrometry assay Urine samples for Compound 2 concentration and PK sampling were collected pre-dose and at the following timepoints: 0-6 hours, 6-12 hours, 12-24 hours, and 24-48 hours. PK parameters were estimated via noncompartmental methods using Phoenix® WinNonlin® (Certara, LP, Princeton, N.J.). […]
observed property: half-life (h)
Give the quantity in h, number only.

Q) I would be grateful if you could share the reported half-life for N#Cc1nn(-c2cc(Cl)c(Oc3n[nH]c(=O)c4ccccc34)c(Cl)c2)c(=O)[nH]c1=O .
A) 14.4

All figures here come from patent US20230241071A1.
